Target: Glycogen synthase kinase-3 beta (Homo sapiens, UniProt P49841)
Sequence (P49841 whole entry, looked up): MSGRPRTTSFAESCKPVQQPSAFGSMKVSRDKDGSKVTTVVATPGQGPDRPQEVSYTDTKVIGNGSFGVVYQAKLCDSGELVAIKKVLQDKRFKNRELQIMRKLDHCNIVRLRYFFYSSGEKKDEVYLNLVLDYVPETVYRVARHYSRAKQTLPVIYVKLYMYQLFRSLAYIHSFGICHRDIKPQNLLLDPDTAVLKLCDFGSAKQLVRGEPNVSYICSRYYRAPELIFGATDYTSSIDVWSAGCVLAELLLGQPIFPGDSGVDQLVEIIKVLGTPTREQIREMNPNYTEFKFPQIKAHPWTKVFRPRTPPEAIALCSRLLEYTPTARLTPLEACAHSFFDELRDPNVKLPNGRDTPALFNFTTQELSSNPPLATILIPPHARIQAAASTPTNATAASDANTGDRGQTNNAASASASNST
Test: Inhibition of human recombinant GSKbeta at 25 uM
inhibition reference
Answer with a number only, understood to be in %.

// solved cases for inhibition follow
The value of inhibition measured for the compound Oc1ccc2[nH]c3c(C4=C[C@@]5(O)CC/C=C\CCCCN6CCC4[C@]4(C[C@@H]7/C=C\CCCCN7[C@H]45)C6)nccc3c2c1 (stereo partly drawn) turned out to be 74.3

The reported inhibition of the compound CC(C)COc1cccc2c3ccnc(C4=C[C@@]5(O)CC/C=C\CCCCN6CCC4[C@]4(C[C@@H]7/C=C\CCCCN7[C@H]45)C6)c3n(CC(C)C)c12 (stereo partly drawn) was 24.2

Okay, next one:
What the record says about CCOc1cccc2c3ccnc(C4=C[C@@]5(O)CC/C=C\CCCCN6CCC4[C@]4(C[C@@H]7/C=C\CCCCN7[C@H]45)C6)c3n(CC)c12 (stereo partly drawn) [9-N-ETHYL-8-ETHOXY-MANZAMINE A] : inhibition is 78
